Tgt: Avi-KRAS G12D (2-169) GTP/RAF1 RBD-3xFLAG (51-131) (Homo sapiens, UniProt P01116, G12D)
Construct: Avi-KRAS G12D (2-169)
Sequence (P01116 2-169 isoform P01116-2 G12D): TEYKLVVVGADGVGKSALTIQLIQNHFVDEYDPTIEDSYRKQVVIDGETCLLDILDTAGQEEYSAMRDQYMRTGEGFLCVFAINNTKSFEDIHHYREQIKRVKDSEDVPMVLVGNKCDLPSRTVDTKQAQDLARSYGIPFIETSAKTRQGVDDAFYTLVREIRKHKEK
Protocol summary: Raf1-KRAS G12D-GTP disruption HTRF assay (Biological Example 3)
Type: binding
Test context: KRAS G12D, GTP-loaded

| Molecule | IC50 |
| --- | --- |
| CCN(c1nc(OC[C@@]23CCCN2C[C@H](F)C3)nc2c(F)c(-c3ccc(F)c4sc(N)c(C#N)c34)c(C(F)(F)F)cc12)[C@H]1CCN(C(=O)N2CC3(CCO3)C2)C1 (atropisomer, axis not shown) | 100 to 1000 nM |
| CCN(c1nc(OC[C@@]23CCCN2C[C@H](F)C3)nc2c(F)c(-c3ccc(F)c4sc(N)c(C#N)c34)c(C(F)(F)F)cc12)[C@H]1CCN(C(=O)C(C)C)C1 [Compound 332] | 100 to 1000 nM |
| CCN(c1nc(OC[C@@]23CCCN2C[C@H](F)C3)nc2c(F)c(-c3ccc(F)c4sc(N)c(C#N)c34)c(C(F)(F)F)cc12)[C@H]1CCN(C(=O)OC2CCOCC2)[C@@H]1C (atropisomer, axis not shown) | 100 to 1000 nM |
| CCN(c1nc(OC[C@@H]2C[C@@H](OC)CN2C)nc2c(F)c(-c3ccc(F)c4sc(N)c(C#N)c34)c(C(F)(F)F)cc12)[C@H]1CCN(C(=O)OC)C1 | 100 to 1000 nM |
| CN(Cc1ccccn1)c1nc(OC[C@@]23CCCN2C[C@H](F)C3)nc2c(F)c(-c3ccc(F)c4sc(N)c(C#N)c34)c(C(F)(F)F)cc12 (atropisomer, axis not shown) | 100 to 1000 nM |
| CCN1C[C@@H](N(C)c2nc(OC[C@@]34CCCN3C[C@H](F)C4)nc3c(F)c(-c4ccc(F)c5sc(N)c(C#N)c45)c(C(F)(F)F)cc23)CC1=O (atropisomer, axis not shown) | 100 to 1000 nM |
| CCN(Cc1cccnc1)c1nc(OC[C@@]23CCCN2C[C@H](F)C3)nc2c(F)c(-c3ccc(F)c4sc(N)c(C#N)c34)c(C(F)(F)F)cc12 (atropisomer, axis not shown) | 1000 to 10000 nM |
| CN(Cc1ccno1)c1nc(OC[C@@]23CCCN2C[C@H](F)C3)nc2c(F)c(-c3ccc(F)c4sc(N)c(C#N)c34)c(C(F)(F)F)cc12 (atropisomer, axis not shown) | 100 to 1000 nM |
| CCN(c1nc(OC[C@@]23CCCN2C[C@H](F)C3)nc2c(F)c(-c3ccc(F)c4sc(N)c(C#N)c34)c(C(F)(F)F)cc12)[C@H]1CCN(C(=O)O[C@@H]2CCCOC2)C1 (atropisomer, axis not shown) | 100 to 1000 nM |
| CCN(c1nc(OC[C@@]23CCCN2C[C@H](F)C3)nc2c(F)c(-c3ccc(F)c4sc(N)c(C#N)c34)c(C(F)(F)F)cc12)[C@H]1C[C@H](COC)N(C(=O)[C@@H]2CCO2)C1 (atropisomer, axis not shown) | 100 to 1000 nM |
| CCN(c1nc(OC[C@@]23CCCN2C[C@H](F)C3)nc2c(F)c(-c3ccc(F)c4sc(N)c(C#N)c34)c(C(F)(F)F)cc12)[C@H]1C[C@H](C)N(C(=O)[C@@H]2C[C@@H]2F)C1 (atropisomer, axis not shown) | 100 to 1000 nM |
| CCN(c1nc(OC[C@@]23CCCN2C[C@H](F)C3)nc2c(F)c(-c3ccc(F)c4sc(N)c(C#N)c34)c(C(F)(F)F)cc12)[C@@H]1C=C[C@H](C(=O)N(C)C)C1 (atropisomer, axis not shown) | 1000 to 10000 nM |
| CN(c1nc(OCC23CCCN2CC(F)C3)nc2c(F)c(-c3ccc(F)c4sc(N)c(C#N)c34)c(C(F)(F)F)cc12)C1CCc2ccncc21 (stereo not drawn) [Compound 962] | 1000 to 10000 nM |
| N#Cc1c(N)sc2c(F)ccc(-c3c(C(F)(F)F)cc4c(N5CCOCC5)nc(OC[C@@]56CCCN5C[C@H](F)C6)nc4c3F)c12 (single isomer, unassigned) | 100 to 1000 nM |
| CN(Cc1cnoc1)c1nc(OC[C@@]23CCCN2C[C@H](F)C3)nc2c(F)c(-c3ccc(F)c4sc(N)c(C#N)c34)c(C(F)(F)F)cc12 (atropisomer, axis not shown) | 100 to 1000 nM |
| CCN(c1nc(OC[C@@]23CCCN2C[C@H](F)C3)nc2c(F)c(-c3ccc(F)c4sc(N)c(C#N)c34)c(C(F)(F)F)cc12)[C@H]1CCN(C(=O)C(CF)CF)C1 (atropisomer, axis not shown) | 100 to 1000 nM |
| CCN(c1nc(OC[C@@]23CCCN2C[C@H](F)C3)nc2c(F)c(-c3ccc(F)c4sc(N)c(C#N)c34)c(C(F)(F)F)cc12)[C@H]1CCN(C(=O)N(C)C)[C@@H]1COC (atropisomer, axis not shown) | 100 to 1000 nM |
| CN(Cc1ccncc1)c1nc(OC[C@@]23CCCN2C[C@H](F)C3)nc2c(F)c(-c3ccc(F)c4sc(N)c(C#N)c34)c(C(F)(F)F)cc12 (atropisomer, axis not shown) | 1000 to 10000 nM |
